Below are IC50 measurements against PIK3CB (Human) (UniProt P42338) drawn from the literature.

Guide cases for IC50, answers given:
{"SMILES RECORD": "C[C@H](Nc1ncnc2[nH]cnc12)c1cc2cccc(Cl)c2c(CC(=O)N2CCOCC2)n1", "IC50": "> 10 µM"}
{"SMILES RECORD": "Nc1nc2cc(-c3ccc4ncc(N5CCCCC5)nc4c3)ccc2o1", "IC50": "> 10 µM"}
{"SMILES RECORD": "C[C@H](Nc1nc(N)ncc1-c1cccc(NS(C)(=O)=O)c1)c1cc2cccc(Cl)c2c(=O)n1-c1ccccc1", "IC50": "1 to 10 µM"}
{"SMILES RECORD": "Cc1cccc2cc([C@H](C)Nc3nc(N)ncc3C(F)(F)F)n(-c3cccc(F)c3)c(=O)c12", "IC50": "1 to 10 µM"}

Enter measured IC50, system PIK3CB (Human) (UniProt P42338), for the compound shown: `Cc1nc2c(C(N)=O)cc(-c3ccncc3)cc2n1-c1ccnc2c(F)ccc(F)c12` 0.036 µM

Enter measured IC50, system PIK3CB (Human) (UniProt P42338), for the compound shown: `C[C@H](Nc1ncnc2[nH]cnc12)c1cc2cccc(Cl)c2c(OCC(=O)O)n1` > 10 µM

Enter measured IC50, system PIK3CB (Human) (UniProt P42338), for the compound shown: `Cc1cccc2cc([C@H](C)Nc3ncnc4[nH]c(Cl)cc34)n(C3CC3)c(=O)c12` > 10 µM

Enter measured IC50, system PIK3CB (Human) (UniProt P42338), for the compound shown: `C[C@H](Nc1ncnc2[nH]cnc12)c1cc2cccc(Cl)c2c(C(=O)N2CCOCC2)n1` < 10 µM

Enter measured IC50, system PIK3CB (Human) (UniProt P42338), for the compound shown: `C[C@H](NC(=O)c1nc(-c2cccc(S(=O)(=O)N3CCN(C)CC3)c2)cnc1N)c1cc2cccc(Cl)c2c(=O)n1-c1ccccc1` 1 to 10 µM

Enter measured IC50, system PIK3CB (Human) (UniProt P42338), for the compound shown: `Nc1nc2cc(-c3ccc4ncc(N5CC(N6CC7CCC(C6)O7)C5)nc4n3)ccc2o1` > 10 µM

---

Below are IC50 measurements against PIK3CB (Human) drawn from the literature.

Guide cases for IC50, answers given:
{"COMPOUND": "C[C@@H](N)C(=O)N1CCN(c2cnc3ccc(-c4ccc5oc(N)nc5c4)nc3c2)CC1", "IC50": "< 0.1 µM"}
{"COMPOUND": "Cc1cccc2cc(Cn3nc(-c4cccc(O)c4)c4c(N)ncnc43)n(-c3ccccc3Cl)c(=O)c12", "IC50": "< 10 µM"}
{"COMPOUND": "Cc1ccccc1-n1c(Cn2nc(CF)c3c(N)ncnc32)cc2cccc(C)c2c1=O", "IC50": "> 10 µM"}
{"COMPOUND": "C[C@@H]1CN(C(=O)c2cnc3ccc(-c4ccc5oc(N)nc5c4)cn23)C[C@H](C)O1", "IC50": "> 10 µM"}
{"COMPOUND": "COc1cc(-c2cccc3cc(C(C)NC(=O)c4c(N)nn5cccnc45)c(-c4ccccc4)nc23)ccn1 (centres unmarked)", "IC50": "> 10 µM"}
{"COMPOUND": "Cc1cccc2cc(Cn3nc(I)c4c(N)ncnc43)n(C3CCCC3)c(=O)c12", "IC50": "> 10 µM"}
{"COMPOUND": "C[C@H](NC(=O)c1nccnc1N)c1cc2cccc(Cl)c2c(CCN2CCOCC2)n1", "IC50": "< 10 µM"}

Enter measured IC50, system PIK3CB (Human), for the compound shown: `C[C@H](NC(=O)c1nc(-c2cccc(S(N)(=O)=O)c2)cnc1N)c1cc2cccc(Cl)c2c(=O)n1-c1ccccc1` 0.1 to 1 µM
